targetEntity: 5-HT 1D (Homo sapiens, UniProt P28221)
Sequence (P28221 whole entry, species assumed): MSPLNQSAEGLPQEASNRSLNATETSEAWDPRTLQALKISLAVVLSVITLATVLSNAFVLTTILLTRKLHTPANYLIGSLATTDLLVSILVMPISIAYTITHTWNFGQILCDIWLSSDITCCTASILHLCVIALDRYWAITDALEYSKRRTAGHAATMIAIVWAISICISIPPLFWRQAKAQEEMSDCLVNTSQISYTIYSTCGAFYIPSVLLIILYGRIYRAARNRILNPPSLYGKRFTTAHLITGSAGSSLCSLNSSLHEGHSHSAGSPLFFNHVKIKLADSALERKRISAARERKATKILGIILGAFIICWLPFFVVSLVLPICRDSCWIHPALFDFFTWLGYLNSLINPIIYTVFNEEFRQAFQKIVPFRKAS
readoutKind: pKi
Answers are plain numbers, as −log10 of the molar value.

Entry COc1ccccc1OCCNC[C@H](O)COc1ccc(O)cc1.COc1ccccc1OCCNC[C@H](O)COc1ccc(O)cc1.O=C(O)/C=C/C(=O)O [STD-101-D1] : reported pKi = ?
6.83

* * *

experimentalProtocol: Pharmacokinetic study 2, 20-min post-dose collection
Format: in vivo, Sprague-Dawley rats
conditionInfo: Sprague-Dawley, brain, ip; rat, 10 mg/kg intraperitoneally, single administration
readoutKind: concentration at 20 min (nM)
One number for each entry, in nM.

Entry COc1ccccc1OCCNC[C@H](O)COc1ccc(O)cc1.COc1ccccc1OCCNC[C@H](O)COc1ccc(O)cc1.O=C(O)/C=C/C(=O)O [STD-101-D1] : reported concentration at 20 min = ?
288
